- target: JtRdhA (reductive dehalogenase) (Jhaorihella thermophila, UniProt A0A1H5TYU2)
- Construct: full-length, N-terminal His-MBP-TEV fusion (JtRdhA^MBP), WP_104007082
- Sequence (A0A1H5TYU2 1-1069): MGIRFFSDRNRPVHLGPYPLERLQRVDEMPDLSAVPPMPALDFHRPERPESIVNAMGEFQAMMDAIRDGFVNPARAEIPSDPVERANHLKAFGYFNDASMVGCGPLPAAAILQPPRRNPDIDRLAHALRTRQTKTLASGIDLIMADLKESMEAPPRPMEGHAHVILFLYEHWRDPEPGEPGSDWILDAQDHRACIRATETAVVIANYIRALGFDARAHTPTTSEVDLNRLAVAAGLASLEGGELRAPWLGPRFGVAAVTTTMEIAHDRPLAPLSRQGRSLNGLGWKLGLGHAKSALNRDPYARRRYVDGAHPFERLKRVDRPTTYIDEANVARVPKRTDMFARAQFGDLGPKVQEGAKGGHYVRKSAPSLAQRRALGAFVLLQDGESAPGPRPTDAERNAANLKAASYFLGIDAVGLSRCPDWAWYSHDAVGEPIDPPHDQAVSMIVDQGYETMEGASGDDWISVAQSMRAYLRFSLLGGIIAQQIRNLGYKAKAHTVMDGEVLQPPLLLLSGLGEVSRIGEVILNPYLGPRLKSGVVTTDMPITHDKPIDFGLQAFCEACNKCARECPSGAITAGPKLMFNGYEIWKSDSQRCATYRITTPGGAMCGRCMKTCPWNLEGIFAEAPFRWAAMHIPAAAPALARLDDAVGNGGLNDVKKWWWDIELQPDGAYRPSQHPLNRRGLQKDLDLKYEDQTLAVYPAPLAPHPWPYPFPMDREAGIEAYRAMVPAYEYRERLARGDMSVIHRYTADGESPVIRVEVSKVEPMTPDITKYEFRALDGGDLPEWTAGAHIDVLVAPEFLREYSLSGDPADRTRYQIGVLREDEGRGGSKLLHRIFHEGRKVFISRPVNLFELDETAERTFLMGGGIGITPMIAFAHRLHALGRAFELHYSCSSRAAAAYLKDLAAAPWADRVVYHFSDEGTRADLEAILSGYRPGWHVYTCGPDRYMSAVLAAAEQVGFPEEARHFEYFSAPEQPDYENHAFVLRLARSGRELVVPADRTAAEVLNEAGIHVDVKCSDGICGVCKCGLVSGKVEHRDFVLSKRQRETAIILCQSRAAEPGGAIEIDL
- experiment notes: NADPH consumption assay, Dixon plot vs 35-DB-4-OH
assay readout: Ki (µM)
Value expressed in µM; do not type the unit.

// returns Ki for O=C(O)c1cc(Cl)c(O)c(Cl)c1 [35-DC-4-OH, 3,5-dichloro-4-hydroxybenzoic acid] with JtRdhA (reductive dehalogenase) (Jhaorihella thermophila, UniProt A0A1H5TYU2); value = 13.7
